I'd be grateful if you could share measured Kd for these entries.
- assayed system: BRD2 (BD2) (Homo sapiens)
- Sequence (P25440 344-453 limits assumed): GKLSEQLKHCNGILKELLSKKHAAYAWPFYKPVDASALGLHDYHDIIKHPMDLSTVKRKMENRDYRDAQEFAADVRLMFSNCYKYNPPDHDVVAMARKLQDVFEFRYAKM
- procedure details: BROMOscan competitive ligand binding assay, BRD2 (BD2)

Item: Cn1cc(-c2ccc3nc(-c4cnn(CC(C)(C)O)c4)nc(N4CCOC[C@@H]4c4ccccc4)c3c2)c2cc[nH]c2c1=O Test system: BRD2 (BD2) (Homo sapiens) Read-out: Kd Value: ? < 100 nM

And the next one, Cc1cc(-c2ccc3nc(-c4cnn(CC(C)(C)O)c4)nc(N4CCOC[C@@H]4c4ccccc4)c3c2)cn(C)c1=O ? < 100 nM

* * *

I'd be grateful if you could share measured Kd for these entries.
- assayed system: BRDT (BD1) (Homo sapiens, UniProt Q58F21)
- procedure details: BROMOscan competitive ligand binding assay, BRDT (BD1)

What does the data say about its Kd? Entry: Cn1cc(-c2ccc3nc(-c4cnn(CC(C)(C)O)c4)nc(N4CCOC[C@@H]4c4ccccc4)c3c2)c2cc[nH]c2c1=O < 100 nM

And the next one, Cc1cc(-c2ccc3nc(-c4cnn(CC(C)(C)O)c4)nc(N4CCOC[C@@H]4c4ccccc4)c3c2)cn(C)c1=O ? < 100 nM

* * *

I'd be grateful if you could share measured Kd for these entries.
- assayed system: BRD3 (BD2) (Homo sapiens, UniProt Q15059)
- Sequence (Q15059 306-415 limits assumed): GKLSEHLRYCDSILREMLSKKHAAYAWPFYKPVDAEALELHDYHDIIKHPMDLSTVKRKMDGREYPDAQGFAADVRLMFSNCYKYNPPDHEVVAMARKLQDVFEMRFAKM
- procedure details: BROMOscan competitive ligand binding assay, BRD3 (BD2)

What does the data say about its Kd? Entry: Cc1cc(-c2ccc3nc(-c4cnn(CC(C)(C)O)c4)nc(N4CCOC[C@@H]4c4ccccc4)c3c2)cn(C)c1=O < 100 nM

And the next one, Cn1cc(-c2ccc3nc(-c4cnn(CC(C)(C)O)c4)nc(N4CCOC[C@@H]4c4ccccc4)c3c2)c2cc[nH]c2c1=O ? < 100 nM

* * *

- assayed system: full-length recombinant human BRD4 (Homo sapiens, UniProt O60885)
- Construct: His-tag (N)
- procedure details: AlphaScreen assay, full-length BRD4 with acetylated histone H4 peptide
- measurement setup: full-length BRD4, acetylated H4 peptide (1-21) ligand
pIC50: −log10 of the molar value.
I'd be grateful if you could share measured pIC50 for these entries.

What does the data say about its pIC50? Entry: Cc1cc(-c2ccc3nc(-c4cnn(CC(C)(C)O)c4)nc(N4CCOC[C@@H]4c4ccc(F)cc4)c3c2)cn(C)c1=O > 7.00

And the next one, Cn1cc(-c2ccc3nc(-c4cnn(CC(C)(C)O)c4)nc(N4CCOC[C@@H]4C4CC4)c3c2)c2cc[nH]c2c1=O ? > 7.00

And the next one, Cn1cc(-c2ccc3nc(-c4cnn(CC(C)(C)O)c4)nc(N4CCOC[C@@H]4c4ccccc4)c3c2)c2cc[nH]c2c1=O ? > 7.00

And the next one, Cc1cc(-c2ccc3nc(-c4cnn(CC(C)(C)O)c4)nc(N4CCOC[C@@H]4c4ccccc4)c3c2)cn(C)c1=O ? > 7.00

And the next one, Cc1cc(-c2ccc3nc(-c4cnn(CC(C)(C)O)c4)nc(N4CCOC[C@@H]4C4CC4)c3c2)cn(C)c1=O ? 6.30 to 7.00

And the next one, Cn1cc(-c2ccc3nc(-c4cnn(CC(C)(C)O)c4)nc(N4CCOC[C@@H]4c4ccc(F)cc4)c3c2)c2cc[nH]c2c1=O ? > 7.00
